TGI values, listed per item
# System: UACC-62 melanoma
# experiment.notes: NCI tumour cell line growth inhibition, 48 h

# example entries with known answers
molecule: COc1nc(SC)nc2c1cnn2C1OC(C(O)CO)C(OC)C1O (stereo not drawn)
TGI: > 100 µM

molecule: CCNCC(=O)O[C@]1(CC)C(=O)OCc2c1cc1n(c2=O)Cc2cc3ccccc3nc2-1
TGI: 0.677 µM

molecule: Cc1ccc(S(=O)(=O)NN=C2CCCCCCCCCCC2)cc1
TGI: > 100 µM

molecule: CN(C)c1ccc(C(=C2C=CC(=[N+](C)C)C=C2)c2ccc(N(C)C)cc2)cc1 (tested in a mixture with another compound)
TGI: 1.24 µM

molecule: CCOc1ccc([C@@H]2[C@@H](Oc3ccccc3)C(=O)N2c2cc(OC)c(OC)c(OC)c2)cc1
TGI: > 100 µM

molecule: Clc1ccc(Oc2ccc(N=Cc3ccc(Cl)cc3Cl)cc2Cl)cc1
TGI: > 100 µM

molecule: COc1ccc2nc3cccc([N+](=O)[O-])c3c(NCCO)c2c1
TGI: 0.0481 µM

molecule: O=C1NC(Cc2c[nH]c3ccccc23)C(=O)N2C(C3CCCCC3)c3[nH]c4ccccc4c3C[C@@H]12 (stereo partly drawn)
TGI: 34.5 µM

What value of TGI has been reported for the following molecule? O=C(CC(=O)N1N=C(N2CCCCC2)CC1c1ccccc1)Nc1ccc(Cl)cc1 (stereo not drawn) > 100 µM

Fill blank: measured TGI of the molecule O=C1C(CN2CCCCC2)CCCC1CN1CCCCC1 (stereo not drawn) is ____. > 67.9 µM

Look up TGI for this molecule: O=c1[nH]c(=O)n(C2CC(O)C(CO)O2)cc1OCCCc1ccccc1 (stereo not drawn) > 100 µM
